Below, each entry is listed alongside its reported %Inh.
Test system: TXK
assaySetup: concentration: 1 μM, replicates: in singlicate; n = 1;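 note: KINOMEscan kinase panel screen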
resultType: %Inh

{"compound": "COc1cccc(NC(=O)NC2CCN(c3ccnc(Nc4cc(OC)c(OC)c(OC)c4)n3)C2)c1 (stereo not shown)", "assayedTarget": "TXK", "resultType": "%Inh", "recordedValue": "1%"}
{"compound": "Cn1cc(-c2ccc3c(c2)CCN3C(=O)Cc2cccc(Cl)c2)c2c(N)ncnc21", "assayedTarget": "TXK", "resultType": "%Inh", "recordedValue": "0%"}
{"compound": "Cc1ccc(S(=O)(=O)Nc2ccc(Nc3nccc(Nc4cccc5[nH]ncc45)n3)cc2)cc1", "assayedTarget": "TXK", "resultType": "%Inh", "recordedValue": "77%"}
{"compound": "Nc1ncc(-c2ccc3nccc(-c4ccncc4)c3c2)cc1S(=O)(=O)N1CCOCC1", "assayedTarget": "TXK", "resultType": "%Inh", "recordedValue": "0%"}

---

Tested on: CLK2
assaySetup: concentration: 1 μM, replicates: in singlicate; n = 1
So basically: %Inh at 10% or higher? That is Criterion met. Lower than 10%? That is Criterion not met.

{"compound": "CC(=O)N1CCN(c2ccc(Nc3nccc(-c4sc(C(C)C)nc4-c4cccc(NS(=O)(=O)c5cccc(Cl)c5)c4)n3)cn2)CC1 [GSK1660437]", "className": "Criterion not met"}
{"compound": "COc1cc2c(cc1OCCN1CCNCC1)ncc1c3ccc(C#N)cc3[nH]c21", "className": "Criterion met"}
{"compound": "CC(=O)Nc1nc2cnc(Nc3cc(NC(=O)c4cccc(C5(C#N)CC5)c4Cl)ccc3C)nc2s1", "className": "Criterion not met"}
{"compound": "Cc1ccc(C)c(NC(=O)NC2CCN(c3ccnc(Nc4ccc(F)cc4)n3)C2)c1 (stereo not shown) [GSK1379720]", "className": "Criterion not met"}
{"compound": "Fc1ccc(-c2ncn(C3CCNCC3)c2-c2ccnc(Oc3ccc(-c4ccccc4)cc3)n2)cc1 [SB-245391]", "className": "Criterion met"}
{"compound": "Nc1n[nH]c2cnc(-c3ccccc3)cc12 [SB-642124]", "className": "Criterion met"}
{"compound": "CCS(=O)(=O)c1ccc(OC)c(Nc2nccc(-c3c(-c4cccc(NC(=O)c5c(F)cccc5F)c4)nn4ncccc34)n2)c1 [GSK326180]", "className": "Criterion not met"}
{"compound": "Cl.c1ccc(-c2ccc3c(Nc4ccc5[nH]ncc5c4)ccnc3c2)nc1 [GW440137]", "className": "Criterion met"}
{"compound": "CC(C)(C)c1ccc2nccc(Nc3cccc(O)c3)c2c1 [GW856795]", "className": "Criterion not met"}
{"compound": "COc1cccc(NC(=O)NC2CCN(c3ccnc(Nc4cc(OC)c(OC)c(OC)c4)n3)C2)c1 (stereo not shown) [GSK1379763]", "className": "Criterion met"}

---

System: HASPIN
Construct: gene GSG2
assaySetup: concentration: 1 μM, replicates: in singlicate; n = 1
Binary call on %Inh with cut-off 5%: strictly below means rule met, and equality or higher means rule not met.

{"compound": "O=C(NC1CCN(c2ccnc(Nc3ccc(F)cc3)n2)C1)c1cc2ccccc2s1 (stereo not drawn)", "className": "rule not met"}
{"compound": "O=C(O)C(F)(F)F.O=C(O)C(F)(F)F.O=c1[nH]ccc2nc(N[C@@H]3CCCNC3)nc(Nc3ccc(S(=O)(=O)N4CCOCC4)cc3)c12", "className": "rule not met"}
{"compound": "CCCCc1nn2ncccc2c1-c1ccnc(Nc2ccc(N3CCN(C)CC3)cc2)n1", "className": "rule not met"}
{"compound": "COc1ccc(CNC(=O)NC2CCN(c3ccnc(Nc4ccc(F)cc4)n3)CC2)cc1", "className": "rule not met"}
{"compound": "O=C(Nc1cccc(-c2nn3ccccc3c2-c2ccnc(Nc3cccc(F)c3)n2)c1)c1c(F)ccc(F)c1Cl", "className": "rule met"}

Hello, the source for this data is paper PMC5540273, in case you need it.
